Field: growth. Provide a value for each of the compounds that follow.
tested on: SK-MEL-2 melanoma; assay: NCI-60 one-dose screen, 48 h (100 = growth as untreated, 0 = no growth, -100 = all killed); details: 10 µM unless noted
This is part of a sample that, as a whole, favours compounds with a hit. Of some 83,000 tested, about 20% had one in any assay. Activity calls are given as the source filed them. The calls were made as follows: active = growth percent below 10; inactive = the rest.

QUERY: Provide growth, tested on SK-MEL-2 melanoma, for C=C1C(=O)O[C@H]2[C@H]1CC/C(CNC(=O)CCc1ccc(OC)cc1)=C\CC[C@@]1(C)O[C@@H]21 .
RESULT: 74.5% (inactive)

QUERY: Provide growth, tested on SK-MEL-2 melanoma, for COC(=O)CNC(=O)[C@]12CCC(C)(C)C[C@H]1C1=CC[C@@H]3[C@@]4(C)Cc5c([nH]c6ccccc56)C(C)(C)[C@@H]4CC[C@@]3(C)[C@]1(C)CC2 .
RESULT: 77.3% (inactive)

QUERY: Provide growth, tested on SK-MEL-2 melanoma, for CC(=O)[C@@H]1CC[C@]2(CO)CC[C@]3(C)[C@H](CC[C@@H]4[C@@]5(C)CCCNC(C)(C)[C@@H]5CC[C@]43C)[C@@H]12 .
RESULT: 105% (inactive)

###

test system: SK-MEL-2 melanoma; assay: NCI-60 one-dose screen, 48 h (100 = growth as untreated, 0 = no growth, -100 = all killed); settings: 10 µM unless noted
This is part of a sample that, as a whole, favours compounds with a hit. Of some 83,000 tested, about 20% had one in any assay.
Field: growth. Provide a value for each of the molecules that follow.
Give the value in % but do not write % after it.

QUERY: Provide growth, tested on SK-MEL-2 melanoma, for CC1(C)NCCC[C@]2(C)[C@H]3CC(=O)[C@H]4[C@@H]5C[C@](C)(CO)CC[C@]5(C)CC[C@@]4(C)[C@]3(C)CC[C@@H]12 .
RESULT: 99.5

QUERY: Provide growth, tested on SK-MEL-2 melanoma, for COC(=O)/C=C1\S/C(=N\NC(=O)c2cc3ccc2/C=C\c2ccc(cc2)/C=C\3)N(c2ccccc2)C1=O .
RESULT: 87

QUERY: Provide growth, tested on SK-MEL-2 melanoma, for O=C1c2c(c3c4cccc(F)c4[nH]c3c3ccc4ccccc4c23)C(=O)N1O .
RESULT: 51.5

QUERY: Provide growth, tested on SK-MEL-2 melanoma, for O=c1c2c(c(=O)n1O)c1c3ccc[nH]c3nc1c1nc3[nH]cccc3c12 .
RESULT: 99.4

QUERY: Provide growth, tested on SK-MEL-2 melanoma, for Fc1ccc(-c2cn3c(nc4ccccc43)c(-c3ccccc3)n2)cc1 .
RESULT: 109

QUERY: Provide growth, tested on SK-MEL-2 melanoma, for c1ccc(-c2cn3c(ccc4ccccc43)n2)cc1 .
RESULT: 40.3

QUERY: Provide growth, tested on SK-MEL-2 melanoma, for Cc1cc(C(=O)/C=C/c2ccc[nH]2)ccc1-n1ccc(C(F)(F)F)n1 .
RESULT: 96.5

###

system: 786-0 renal; assay: NCI-60 one-dose screen, 48 h; conditions: 10 µM unless noted
This is part of a sample that, as a whole, favours compounds with a hit. Of some 83,000 tested, about 20% had one in any assay. The source made the active and inactive calls. Rule for the calls: active = growth percent below 10; inactive = the rest.
// allowed return values: active, inactive

QUERY: Entry COC(=O)c1ccc2c(c1)[n+](=O)c(C(C)=O)c(C(F)(F)F)n2[O-] : call = ?
RESULT: active

QUERY: Entry COc1cc2cc(CN3CCN(c4nccc(-c5ccc6ccccc6c5)n4)CC3)c(=O)[nH]c2cc1OC : call = ?
RESULT: inactive

QUERY: Entry COc1ccc(/C=C(\C#N)n2nc3cccc(F)c3n2)cc1 : call = ?
RESULT: inactive

QUERY: Entry COC(=O)CNC(=O)[C@]12CCC(C)(C)C[C@H]1C1=CC[C@@H]3[C@@]4(C)Cc5c([nH]c6ccccc56)C(C)(C)[C@@H]4CC[C@@]3(C)[C@]1(C)CC2 : call = ?
RESULT: inactive

QUERY: Entry O=C(/C(=C/c1ccc([N+](=O)[O-])cc1)SCc1ccc(F)cc1)c1ccc(F)cc1 : call = ?
RESULT: inactive

These data points were gathered from PubChem BioAssay (NCI).
